- PROCEDURE_TEXT: Dynamic surface tension of aqueous solutions, maximum bubble pressure method
- Assay type: physicochemical
- STUDY_CONDITIONS: 0.1 wt % solution; 1 b/s
I'd be grateful if you could share measured γ (0.1 wt % solution) (1 b/s) for these entries.
Kindly provide the numeric value in Dyne/cm only, without the unit symbol.

Q) Given CCCCCOC(=O)C(O)C(O)C(=O)OCCCCC (racemic) [Example 5, Dipentyl-DL-tartrate] , state its recorded γ (0.1 wt % solution) (1 b/s).
A) 36.8

Q) Given O=C(OCc1ccccc1)C(O)C(O)C(=O)OCc1ccccc1 (racemic) [Example 11, Dibenzyl-DL-tartrate] , state its recorded γ (0.1 wt % solution) (1 b/s).
A) 67.8

Q) Given CC(C)(C)COC(=O)C(O)C(O)C(=O)OCC(C)(C)C (racemic) [Example 8, Dineopentyl-DL-tartrate] , state its recorded γ (0.1 wt % solution) (1 b/s).
A) 38.7

---

I'd be grateful if you could share measured pC20 for these entries.
- PROCEDURE_TEXT: Dynamic surface tension of aqueous solutions, maximum bubble pressure method
- Format: physicochemical
- STUDY_CONDITIONS: negative logarithm of molar concentration giving 52.1 dyne/cm at 0.1 b/s
Form: value (number only, do not type unit).

Q) Given CC(C)COC(=O)C(O)C(O)C(=O)OCC(C)C (racemic) [Example 3, Diisobutyl-DL-tartrate] , state its recorded pC20.
A) 2.6

Q) Given O=C(OCc1ccccc1)C(O)C(O)C(=O)OCc1ccccc1 (racemic) [Example 11, Dibenzyl-DL-tartrate] , state its recorded pC20.
A) 1.0

Q) Given CC(C)CC(C)OC(=O)C(O)C(O)C(=O)OC(C)CC(C)C (racemic) [Example 10, Di(4-methyl-2-pentyl)-DL-tartrate] , state its recorded pC20.
A) 3.7

---

- PROCEDURE_TEXT: Dynamic surface tension of aqueous solutions, maximum bubble pressure method
- Format: physicochemical
- STUDY_CONDITIONS: lowest surface tension in water; 0.1 b/s
ATTRIBUTE_MEASURED: limiting γ (0.1 b/s) (Dyne/cm)
Kindly provide the numeric value in Dyne/cm only, without the unit symbol.

Q) Given CCCCCCOC(=O)C(O)C(O)C(=O)OCCCCCC (racemic) [Example 9, Dihexyl-DL-tartrate] , state its recorded limiting γ (0.1 b/s).
A) 40.5

Q) Given CC(C)CC(C)OC(=O)C(O)C(O)C(=O)OC(C)CC(C)C (racemic) [Example 10, Di(4-methyl-2-pentyl)-DL-tartrate] , state its recorded limiting γ (0.1 b/s).
A) 41.3

Q) Given CCCCC(CC)COC(=O)C(O)C(O)C(=O)OCC(CC)CCCC (racemic) [Example 12, Di(2-ethylhexyl)-DL-tartrate] , state its recorded limiting γ (0.1 b/s).
A) 66.7

---

I'd be grateful if you could share measured γ (0.1 wt % solution) (6 b/s) for these entries.
- PROCEDURE_TEXT: Dynamic surface tension of aqueous solutions, maximum bubble pressure method
- Type: physicochemical
- STUDY_CONDITIONS: 0.1 wt % solution; 6 b/s
Kindly provide the numeric value in Dyne/cm only, without the unit symbol.

Q) Given CCC(C)OC(=O)C(O)C(O)C(=O)OC(C)CC (racemic) [Example 4, Di-sec-butyl-DL-tartrate] , state its recorded γ (0.1 wt % solution) (6 b/s).
A) 53.2

Q) Given CCCCCOC(=O)C(O)C(O)C(=O)OCCCCC (racemic) [Example 5, Dipentyl-DL-tartrate] , state its recorded γ (0.1 wt % solution) (6 b/s).
A) 37.8

Q) Given CC(C)CC(C)OC(=O)C(O)C(O)C(=O)OC(C)CC(C)C (racemic) [Example 10, Di(4-methyl-2-pentyl)-DL-tartrate] , state its recorded γ (0.1 wt % solution) (6 b/s).
A) 46.8
